# Test Summary: self-splicing fitness, log relative to wild type (ln ratio); higher = more splicing; Tetrahymena group I intron in knt gene, E. coli kanamycin selection, DiMSum; sequences stand for … in CUCUCU…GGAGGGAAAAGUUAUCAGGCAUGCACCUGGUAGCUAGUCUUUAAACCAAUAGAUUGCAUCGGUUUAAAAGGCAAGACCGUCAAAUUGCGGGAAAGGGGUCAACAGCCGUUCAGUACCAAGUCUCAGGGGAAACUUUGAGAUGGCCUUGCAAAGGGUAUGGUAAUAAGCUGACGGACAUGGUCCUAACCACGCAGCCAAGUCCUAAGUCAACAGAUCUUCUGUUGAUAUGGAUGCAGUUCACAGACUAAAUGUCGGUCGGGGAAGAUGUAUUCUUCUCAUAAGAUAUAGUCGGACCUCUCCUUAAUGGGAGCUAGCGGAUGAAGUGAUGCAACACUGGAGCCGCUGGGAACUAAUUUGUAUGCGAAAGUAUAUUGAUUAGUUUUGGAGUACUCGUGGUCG;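 further: selection with 25 µg/mL kanamycin versus none on LB agar overnight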
# Run Parameters: 37 °C
Would you mind telling me the reported self-splicing fitness (ln) of each entry?
Answer field: number only, no words.

(Q) Quick one: self-splicing fitness (ln) for GCGGAGCAAUAUUACGAAGC ?
(A) -2.13

(Q) Quick one: self-splicing fitness (ln) for AAACAGCAAUAUUACGGUGU ?
(A) -1.4

(Q) Quick one: self-splicing fitness (ln) for GAUCAGCAAUAUUACGCCCU ?
(A) 0.418

(Q) Quick one: self-splicing fitness (ln) for UCUUAGCAAUAUUACGUUCA ?
(A) -1.85

(Q) Quick one: self-splicing fitness (ln) for GCAAAGCAAUAUUACGGAAC ?
(A) -0.635

(Q) Quick one: self-splicing fitness (ln) for AAGAAGCAAUAUUACGGGGC ?
(A) -2.95

(Q) Quick one: self-splicing fitness (ln) for UGCUAGCAAUAUUACGGACC ?
(A) -1.06

(Q) Quick one: self-splicing fitness (ln) for GGGGAGCAAUAUUACGGGUU ?
(A) -2.2

---

# Test Summary: self-splicing fitness, log relative to wild type (ln ratio); higher = more splicing; Tetrahymena group I intron in knt gene, E. coli kanamycin selection, DiMSum; sequences stand for … in CUCUCU…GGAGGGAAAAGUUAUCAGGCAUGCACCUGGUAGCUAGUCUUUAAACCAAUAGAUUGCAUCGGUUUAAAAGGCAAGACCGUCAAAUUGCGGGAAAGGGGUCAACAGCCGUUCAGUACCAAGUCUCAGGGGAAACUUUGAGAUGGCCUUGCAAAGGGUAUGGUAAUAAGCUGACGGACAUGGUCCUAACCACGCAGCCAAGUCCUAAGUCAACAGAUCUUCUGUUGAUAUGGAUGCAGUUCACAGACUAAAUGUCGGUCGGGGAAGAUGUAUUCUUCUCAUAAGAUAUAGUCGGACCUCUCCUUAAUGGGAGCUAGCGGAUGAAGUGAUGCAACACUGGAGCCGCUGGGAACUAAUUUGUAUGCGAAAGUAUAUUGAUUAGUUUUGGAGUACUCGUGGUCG
# Run Parameters: 37 °C
Would you mind telling me the reported self-splicing fitness (ln) of each entry?
Answer field: number only, no words.

(Q) Quick one: self-splicing fitness (ln) for UUAUAGCAAUAUUACGGUGA ?
(A) -0.405

(Q) Quick one: self-splicing fitness (ln) for AGAAAGCAAUAUUACGCGUC ?
(A) -1.32

(Q) Quick one: self-splicing fitness (ln) for AUCAAGCAAUAUUACGACUA ?
(A) 0.132

(Q) Quick one: self-splicing fitness (ln) for AUAUAGCAAUAUUACGCCGA ?
(A) -1.13

(Q) Quick one: self-splicing fitness (ln) for UAUGAGCAAUAUUACGUCCU ?
(A) -2.19

(Q) Quick one: self-splicing fitness (ln) for UAUGAGCAAUAUUACGAAUU ?
(A) -1.73

(Q) Quick one: self-splicing fitness (ln) for AGGGAGCAAUAUUACGCUGU ?
(A) -3.01

(Q) Quick one: self-splicing fitness (ln) for UAUCAGCAAUAUUACGUGUG ?
(A) 0.407
